# System: WPMY1-GM130-SQSTM1
# ASSAY EXPLANATION: phenotypically active (imaging signature differs from DMSO and reproducible) at any of 0.3-9 uM (binary (1 = active, 0 = inactive)); higher = active
# CONDITION DETAILS: treatment time: 24 h
Where a name gives a salt, the structure may show the parent alone.

COMPOUND	phenotypically active
CC1(C)CC(=O)C2=C(C1)NC(=S)NC2c1cccc(O)c1 (centres undefined)	1 (active)
Brc1c(Br)c(Br)c2[nH]nnc2c1Br	0 (inactive)
Nc1ncnc2[nH]nc(Nc3ccc(F)cc3)c12	1 (active)
N=C1NC(=O)/C(=C\c2ccc(O)cc2)S1	0 (inactive)
C/N=C(\NC#N)NCCSCc1nc[nH]c1C	0 (inactive)
COCc1nc2c([nH]1)c(=O)n(C)c(=O)n2CC(C)C	0 (inactive)
CC(C)OC(=O)c1cc2c(OCC(O)CNC(C)(C)C)cccc2[nH]1 (centres undefined)	1 (active)
OCC(CO)N[C@H]1C[C@](O)(CO)[C@@H](O)[C@H](O)[C@H]1O	0 (inactive)
Nc1ncnc2c1c(-c1ccc(Cl)cc1)nn2-c1cccc(-c2cnnn2Cc2cccc(-c3ccccc3)c2)c1	0 (inactive)
COc1ccccc1OCC(O)CN1CCN(CC(=O)Nc2c(C)cccc2C)CC1 (centres undefined)	0 (inactive)
CC(C)(C)c1nc(-c2cccc(NS(=O)(=O)c3c(F)cccc3F)c2F)c(-c2ccnc(N)n2)s1	0 (inactive)
Oc1ccc(Nc2nc(-c3ccc(Cl)cc3)cs2)cc1	1 (active)
O=C(Nc1ccccc1)N1CCN(c2nc(-c3ccccc3)ns2)CC1	1 (active)
COc1cc2c(NC3CCN(C)CC3)nc(N3CCCN(C)CC3)nc2cc1OCCCN(C)C	0 (inactive)
Cc1ccc(NC(=O)CCCCCC(=O)Nc2ccccc2N)cc1	1 (active)
N#C/C(=C(/N)Sc1ccc(N)cc1)c1ccccc1C(F)(F)F	0 (inactive)
CC(C)(C)NS(=O)(=O)c1cncc(-c2cc(F)c3nc(N)nn3c2)c1	0 (inactive)
CCCCCCCCCCCCc1ccc(S(=O)(=O)Nc2nncs2)cc1	0 (inactive)
CCN1/C(=C/C(C)=O)Sc2ccc(O)cc21	0 (inactive)
Cc1n[nH]c2ccc(-c3cncc(OC[C@@H](N)Cc4ccccc4)c3)cc12	1 (active)
Nc1ncnc2c1nc(Br)n2[C@@H]1O[C@@H]2COP(=O)(O)O[C@H]2[C@H]1O [8-Bromo-cAMP, sodium salt]	0 (inactive)
N=C(N)c1ccc(OCCCCCOc2ccc(C(=N)N)cc2)cc1	1 (active)
C[N+](C)(C)CC[N+]1(C)Cc2c(Cl)c(Cl)c(Cl)c(Cl)c2C1 [Chlorisondamine diiodide]	0 (inactive)
CCCSc1nc2c(c(=O)n1-c1ccccc1)SCC2	0 (inactive)
C=CC(=O)N1CCC[C@@H](n2nc(-c3cccc(C(=O)Nc4ccc(C(C)C)c(C)c4)c3)c3c(N)ncnc32)C1	1 (active)
Cc1c(NC(=O)OC[C@@H]2COCCN2)cn2ncnc(Nc3ccc4c(cnn4Cc4cccc(F)c4)c3)c12	1 (active)
CCC(=C(CC)c1ccc(O)cc1)c1ccc(O)cc1 (stereo in doubt)	0 (inactive)
CC(=O)N1CCN(C)CC1 [1-Acetyl-4-methylpiperazine hydrochloride]	0 (inactive)
CC(C)NCC(O)COc1ccc(CC(N)=O)cc1 (centres undefined)	1 (active)
COc1cc(O)c2c(c1C1CCCN1)OC(c1ccc(O)cc1)CC2 (centres undefined) [Vochysine (4 dia/énantio)]	0 (inactive)
NC(=O)OCC(COC(N)=O)c1ccccc1 [felbamate]	0 (inactive)
Cc1c2oc3c(C)ccc(C(=O)NC4C(=O)NC(C(C)C)C(=O)N5CCCC5C(=O)N(C)CC(=O)N(C)C(C(C)C)C(=O)OC4C)c3nc-2c(C(=O)NC2C(=O)NC(C(C)C)C(=O)N3CCCC3C(=O)N(C)CC(=O)N(C)C(C(C)C)C(=O)OC2C)c(N)c1=O (centres undefined)	1 (active)
C[C@]12CC[C@@H]3c4ccc(O)cc4CC[C@H]3[C@@H]1CC[C@@H]2O	0 (inactive)
OC[C@H]1NC[C@H](O)[C@@H](O)[C@@H]1O	0 (inactive)
CCCNC(C)C(=O)Nc1c(C)csc1C(=O)OC (centres undefined)	0 (inactive)
O=c1cc(N2CCOCC2)oc2c(-c3ccccc3)cccc12	1 (active)
C[C@@H]1C[C@H]2[C@@H]3C[C@H](F)C4=CC(=O)C=C[C@]4(C)[C@@]3(F)[C@@H](O)C[C@]2(C)[C@@]1(O)C(=O)COC(=O)C(C)(C)C [flumethasone pivalate]	0 (inactive)
Cc1ccc(OCCSc2ncccn2)c(Br)c1 [ZLN 024 hydrochloride]	0 (inactive)
Cc1cccc(CCN2CCC(C(=O)c3ccc(NS(C)(=O)=O)cc3)CC2)n1	1 (active)

----------
# Tested on: WPMY1-CANX-COX4
# ASSAY EXPLANATION: phenotypically active (imaging signature differs from DMSO and reproducible) at any of 0.3-9 uM (binary (1 = active, 0 = inactive)); higher = active
# CONDITION DETAILS: treatment time: 24 h
Counter-ions that a name gives are not always drawn.
REPORTED METRIC: phenotypically active

> print(dat)
                                    compound  readout.number
 1  CN1C(CSCC(F)(F)F)Nc2cc(Cl)c(S(N)(=O)=O)cc2S1(=O)=O (stereo not drawn) [polythiazide]               0
 2  CC1Cc2ccccc2N1NC(=O)c1ccc(Cl)c(S(N)(=O)=O)c1 (stereo not drawn) [indapamide]               0
 3  O=C(Nc1cccnn1)N1CCN(c2nccc(-c3ccc(F)c(F)c3)n2)CC1               0
 4  COc1ccc(-c2ccc3cc(C(=O)O)ccc3c2)cc1C12CC3CC(CC(C3)C1)C2 [Adapalene]               0
 5  CCC(C)(C)C(=O)O[C@H]1C[C@@H](C)C=C2C=C[C@H](C)[C@H](CC[C@@H]3C[C@@H](O)CC(=O)O3)[C@H]21 [Simvastatin]               1
 6  Cc1cc(C)c(C)c(S(=O)(=O)Nc2ccc(N3CC[C@H](C(=O)O)C3)c3ccccc23)c1C               0
 7                   CCCCNNC(=O)c1ccc(Br)cc1               1
 8  Cc1ccc(C(=O)c2cc(O)c(O)c([N+](=O)[O-])c2)cc1 [tolcapone]               0
 9  O=C(Nc1cccc(Cl)c1)Nc1ncc(CCNc2ncnc3ccsc23)s1 [SNS 314 mesylate]               1
10  O=c1oc2c(O)c(O)cc3c(=O)oc4c(O)c(O)cc1c4c23 [Ellagic acid]               0
11  Nc1nc(N)nc(-c2cc(Cl)ccc2Cl)n1 [Irsogladine maleate]               0
12  CC1(C)CCC(C)(C)c2cc(C3(c4ccc(C(=O)O)cc4)OCCO3)ccc21               0
13  Cc1nc(NC(=O)N2CCC[C@H]2C(N)=O)sc1-c1csc(C(C)(C)C)n1               1
14  COc1cc(Br)c(Nc2nc(-c3c(C)nc4ncccn34)cs2)c(Br)c1               1
15  O=C(/C=C/c1ccc(OCc2ccccc2)cc1)c1c(O)cc(OCc2ccccc2)cc1OCc1ccccc1 [4,2,4'-Tribenzyloxy-6'-hydroxychalcone]               0
16  NS(=O)(=O)c1cc2c(cc1Cl)NC(C1CC3C=CC1C3)NS2(=O)=O (stereo not drawn) [cyclothiazide]               0
17  CC(C)[C@@H](C)/C=C/[C@@H](C)[C@H]1CC[C@H]2C3=CC=C4C[C@@H](O)CC[C@]4(C)[C@H]3CC[C@]12C [Ergosterine]               0
18  COc1ccc(CNC(=O)Nc2ncc([N+](=O)[O-])s2)cc1               1
19  Cc1cn(CCN2CCN(c3ccccc3-c3cc(C#N)cc(C(=O)NCCCN4CCCC4)c3)CC2)c2ccccc12               1
20  Brc1c(NC2=NCCN2)ccc2nccnc12 [brimonidine]               0
21  CC1=CC(=O)C2=C(C)CC[C@@H]3[C@H](OC(=O)[C@H]3C)[C@@H]12 [Leucomisine]               0
22  CCSc1ccc2c(c1)N(CCCN1CCN(C)CC1)c1ccccc1S2 [thiethylperazine]               1
23  O=C(Nc1ccc(CN2CCOCC2)cc1)c1ccc(-c2cccc(Cl)c2)o1               0
24  O=C(O/N=C1\c2ccccc2-c2nc3ccccc3nc21)c1ccco1               1
25  C=CC(=O)Nc1cccc(Nc2nc(Nc3ccc(OCCOC)cc3)ncc2F)c1               1
26  Cc1c[nH]c2nccc(Oc3c(F)cc(Nc4cc(Cl)nc(N)n4)cc3F)c12               1
27  CNNCc1ccc(C(=O)NC(C)C)cc1 [procarbazine]               0
28  CCCCC(=O)O[C@H]1CC[C@H]2[C@@H]3CCc4cc(O)ccc4[C@H]3CC[C@]12C [estradiol valerate]               0
29     Cc1n[nH]c(=O)[nH]c1=O [Azathymine, 6]               0
30  O=C(O)[C@H]1O[C@@H](Oc2cc3oc(-c4ccccc4)cc(=O)c3c(O)c2O)[C@H](O)[C@@H](O)[C@@H]1O [Baicalin]               0
31         CC(C)Cn1c(=O)n(C)c(=O)c2[nH]cnc21               0
32  O=C(c1cccc(Cl)c1F)N1CCN(Cc2cccc(Nc3nccs3)n2)CC1               1
33  CC(C)C(=O)c1c(C(C)C)nn2ccccc12 [Ibudilast]               0
34  NC(=O)c1cccc(-c2cccc(OC(=O)NC3CCCCC3)c2)c1               0
35  Cc1ccc(C(=O)c2ccc(CC(=O)O)n2C)cc1 [tolmetin]               0
36                  Nc1nnc2[nH]c3ccccc3nc1-2               0
37  Cc1ccc(NC(=O)c2ccc(CN3CCN(C)CC3)cc2)cc1Nc1nc(-c2cccnc2)cs1 [masitinib]               1
38  NCCNS(=O)(=O)c1cccc2cnccc12 [H-9 dihydrochloride]               0
